tested on: pigweed (Amaranthus retroflexus); test: Test B postemergence; assay type: in vivo; conditions: Rate 125 g/ha, scale 0 to 100, 0 no effect, 100 complete control
readoutName: Plant response rating, Pigweed
Form rule: numeric answer, no unit written next to it.

Known results for compounds:
CCCOC(=O)c1cccc(N2CCC(n3ccc(C(C)(C)C)n3)C2=O)c1 (stereo not shown) [Compound 123] : 0
CCC(CC)c1ccn(C2CCN(c3ccc(Cl)c(OC)c3)C2=O)n1 (stereo not shown) [Compound 118] : 70
Cc1cc(C)nc(N2CCC(n3ccc(C(C)(C)C)n3)C2=O)c1 (stereo not shown) [Compound 138] : 0

Enquiry: Please give the measured Plant response rating, Pigweed for this compound: COc1cc(N2CCC(n3ccc(C(C)(C)C)n3)C2=O)ccc1Br (stereo not shown) [Compound 141]
Return: 80

Enquiry: Entry to check: COc1cc(N2CCC(n3ccc(C(C)C)n3)C2=O)ccc1Cl (stereo not shown) [Compound 120]
Return: 60

Enquiry: Follow-up entry: COc1cc(N2CCC(n3ccc(C(C)C)n3)C2=O)ccc1Br (stereo not shown) [Compound 140]
Return: 60

Enquiry: Okay, and CCCCC(CCCC)c1ccn(C2OCN(c3cccc(OC(F)(F)F)c3)C2=O)n1 (stereo not shown) [Compound 113] ?
Return: 100

Reference for the values: patent US7138361B2
